Assay: chemical genetic growth profiling, strain panel (AID 1159580);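 note: tested at 20 µM; growth read once vehicle control cultures reached saturation at 30 °C; 1 = growth at the plate median or of vehicle wells; lower values mean less growth of the strain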
Details: S. cerevisiae deletion strains, growth OD, locus YNL153C, strain GIM3
Out of some 5,500 compounds screened, about 2,000 (36%) were called active. Roughly 18% stayed inconclusive and do not appear here. Cut-off read from the data, not from the text of the source: active = normalized growth mostly below about 0.91 (no sharp cut-off); inconclusive = no clear call, values can overlap the other calls; inactive = mostly above about 0.92. This is one part of the list.
# valid calls are Y = active, N = inactive; nothing else

Take a look at these entries with their results.
INSERT INTO measurements (smiles_data, label_class) VALUES
  ('COc1cc(O)c(C(=O)O)c(O)c1', 'N'),
  ('CCN(CC)CCNC(=O)COc1ccc(OC)cc1', 'N'),
  ('COC(=O)c1c(OC)ccc(N=CNO)c1OC', 'N'),
  ('CC1(C)S[C@@H]2[C@H](NC(=O)COc3ccccc3)C(=O)N2[C@H]1C(=O)O', 'N'),
  ('O=C(CCCN1CC=C(n2c(=O)[nH]c3ccccc32)CC1)c1ccc(F)cc1', 'N');

What did the test return for CCCN(CCC)[C@@H]1CCc2ccc(O)cc2C1 ?
N

---

Test: chemical genetic growth profiling, strain panel (AID 1159580)
Details: S. cerevisiae deletion strains, growth OD, locus YEL061C, strain CIN8, active compounds read low
About 2,000 (36%) of roughly 5,500 compounds were called active. About 18% were inconclusive and are not listed. Some of the results follow.
OBSERVATION_TYPE: normalized growth
Write no unit; give the number alone.

INSERT INTO results (compound, recorded_number) VALUES
  ('CC1(C)C[C@@H]2C(=O)CC[C@H]3O[C@]3(C)CC[C@H]21', 1),
  ('COc1cc(Cl)c(Cl)cc1Cl', 0.992),
  ('C[C@]12C=CC(=O)C=C1CCC1C2CC[C@]2(C)C(=O)CCC12 (stereo partly specified)', 0.995),
  ('FC(F)(F)c1cc(NC2=NCCN=C(Nc3cc(C(F)(F)F)cc(C(F)(F)F)c3)SS2)cc(C(F)(F)F)c1', 1),
  ('CC(=O)CSc1nsc(SCC(C)=O)c1C#N', 1.02);

Now consider a different compound.
Complete the entry with normalized growth for C[C@]12C=CC(=O)C=C1CCC1C2C(=O)C[C@@]2(C)C1CC[C@]2(O)C(=O)CO (stereo partly specified)
0.985

---

Experiment: chemical genetic growth profiling, strain panel (AID 1159580)
Settings: S. cerevisiae deletion strains, growth OD, locus YOR231W, strain MKK1
Among all 5,500 compounds or so, about 2,000 (36%) were called active. Not shown: some 18% with an inconclusive outcome. Cut-off read from the data, not from the text of the source: active = normalized growth mostly below about 0.91 (no sharp cut-off); inconclusive = no clear call, values can overlap the other calls; inactive = mostly above about 0.92. Some of the results follow.
# valid calls are T = active, F = inactive; nothing else

INSERT INTO results (compound, label_class) VALUES
  ('O=C1CSC(=Nc2cc(Cl)cc(Cl)c2)N1Cc1cccnc1', 'F'),
  ('COc1ccc2c(=O)c(-c3cc4c(cc3OC)OCO4)coc2c1', 'F'),
  ('CC1=C2CCC3C(CC[C@]4(C)C(=O)CCC34)[C@@]2(C)CCC1=O (stereo not given in full)', 'F'),
  ('Cc1c(Cl)cccc1N=C1SCC(=O)N1Cc1ccco1', 'F'),
  ('CC1(C)S[C@@H]2[C@H](NC(=O)COc3ccccc3)C(=O)N2[C@H]1C(=O)O', 'F');

Let us examine a further case.
What did the test return for C[C@H]1C(=O)O[C@@H]2CCN3CC=C(COC(=O)[C@](C)(O)[C@]1(C)O)[C@H]23 ?
F

---

Experiment: chemical genetic growth profiling, strain panel (AID 1159580);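 note: tested at 20 µM; growth read once vehicle control cultures reached saturation at 30 °C; 1 = growth at the plate median or of vehicle wells; lower values mean less growth of the strain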
Settings: S. cerevisiae deletion strains, growth OD, locus YLR102C, strain apc9, active compounds read low
Screen size: about 5,500 compounds; about 2,000 (36%) were called active. Inconclusive results (about 18%) are left out. The list shows a part of the results.
OBSERVATION_TYPE: normalized growth
Write no unit; give the number alone.

Reference set (3 entries):
INSERT INTO assay_data (molecule, recorded_number) VALUES
  ('COc1ccc2[nH]cc(CCNC(C)=O)c2c1', 1.03),
  ('COc1cc(O)c(C(=O)O)c(O)c1', 0.997),
  ('Cc1cc(O)c2c(c1O)C(=O)c1c(O)cc(C)c(O)c1C2=O', 0.999);

Complete the entry with normalized growth for Cn1c([N+](=O)[O-])cnc1COC(N)=O
0.986

Complete the entry with normalized growth for CCC(=O)O[C@H]1CCC2C3CCc4cc(O)ccc4C3CC[C@@]21C (stereo partly drawn)
1

Complete the entry with normalized growth for CCCC(=O)Nc1ncnc2c1ncn2C1O[C@@H]2COP(=O)(O)O[C@H]2[C@H]1OC(=O)CCC (stereo partly drawn)
1.01

Complete the entry with normalized growth for CCCc1nc(C(C)(C)O)c(C(=O)OCc2oc(=O)oc2C)n1Cc1ccc(-c2ccccc2-c2nn[nH]n2)cc1
0.989

Complete the entry with normalized growth for O=C1c2ccc(O)c(O)c2C(=O)c2c(O)ccc(O)c21
0.991

Complete the entry with normalized growth for CC(C)CCCC(C)C1CCC2C3CCC4CC(=O)CCC4(C)C3CCC12C (stereo not drawn)
1.02

Complete the entry with normalized growth for O=c1cc(-c2ccc(O)cc2)oc2cc(O[C@@H]3O[C@H](CO)[C@@H](O)[C@H](O)[C@H]3O[C@@H]3OC[C@](O)(CO)[C@H]3O)cc(O)c12
0.989

Complete the entry with normalized growth for CCCCC(=O)O[C@H]1CCC2C3CCc4cc(O)ccc4C3CC[C@@]21C (stereo partly drawn)
1.01

---

Test: chemical genetic growth profiling, strain panel (AID 1159580);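 note: tested at 20 µM; growth read once vehicle control cultures reached saturation at 30 °C; 1 = growth at the plate median or of vehicle wells; lower values mean less growth of the strain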
Details: S. cerevisiae deletion strains, growth OD, locus YBR229C, strain ROT2, active compounds read low
The whole screen tested about 5,500 compounds, of which about 2,000 (36%) were called active. Not shown: some 18% with an inconclusive outcome. The list shows a part of the results.
Listed compounds paired with reported normalized growth
Write no unit; give the number alone.

Reference set (10 entries):
INSERT INTO results (smiles_data, recorded_number) VALUES
  ('CC1(C)S[C@@H]2[C@H](NC(=O)COc3ccccc3)C(=O)N2[C@H]1C(=O)O', 1),
  ('CCN(CC)CCNC(=O)COc1ccc(OC)cc1', 0.995),
  ('Cn1cnc([N+](=O)[O-])c1Sc1ncnc2nc[nH]c12', 1.01),
  ('COC(=O)c1csc2c(C(F)(F)F)cc(N3CCN(S(=O)(=O)c4ccc(C)cc4)CC3)nc12', 1),
  ('O=S(=O)(c1ccc(Cl)c(Cl)c1)N1CCN(c2ccc(C(F)(F)F)cn2)CC1', 1.01),
  ('CCCCC/C=C\C/C=C\C/C=C\C/C=C\CCCC(=O)O', 0.994),
  ('Cc1c(-n2cccc2)cc2c(c1[N+](=O)[O-])C(C)(C)CC2(C)C', 1.01),
  ('Nc1ncnc2c1ncn2[C@@H]1O[C@H](CO)[C@@H](O)[C@@H]1O', 1.01),
  ('COc1ccccc1N1CCN(S(=O)(=O)c2ccc(C(F)(F)F)cc2)CC1', 0.99),
  ('O=C1CCC(=O)N1CNc1ccccc1OC(F)(F)F', 0.994);

Now consider a different compound.
Complete the entry with normalized growth for Cc1oc(-c2ccccc2)cc1C(=O)N1CCN(c2ccc(C(F)(F)F)cn2)CC1
0.961

---

Assay: chemical genetic growth profiling, strain panel (AID 1159580);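 note: tested at 20 µM; growth read once vehicle control cultures reached saturation at 30 °C; 1 = growth at the plate median or of vehicle wells; lower values mean less growth of the strain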
Settings: S. cerevisiae deletion strains, growth OD, locus YGL167C, strain pmr1, active compounds read low
In all, about 5,500 compounds went through this assay and about 2,000 (36%) were called active. About 18% were inconclusive and are not listed. Some of the results follow.
OBSERVATION_TYPE: normalized growth
Write no unit; give the number alone.

Reference set (6 entries):
INSERT INTO results (compound, recorded_number) VALUES
  ('C[C@H]1C(=O)O[C@@H]2CCN3CC=C(COC(=O)[C@](C)(O)[C@]1(C)O)[C@H]23', 0.994),
  ('O=C(O)CCCN1C(=O)c2cccc3cccc(c23)C1=O', 1.01),
  ('CC(=O)Oc1ccc2c(c1)CCC1C2CC[C@@]2(C)C1CC[C@@H]2OC(C)=O (some centres not stated)', 0.973),
  ('CCCCC/C=C\C/C=C\C/C=C\C/C=C\CCCC(=O)O', 0.958),
  ('CC1=C2CCC3C(CC[C@]4(C)C(=O)CCC34)[C@@]2(C)CCC1=O (some centres not stated)', 0.963),
  ('Cc1cccc(N(C)C(=S)Oc2ccc3ccccc3c2)c1', 0.984);

Complete the entry with normalized growth for CCCCC(=O)N(Cc1ccc(-c2ccccc2-c2nn[nH]n2)cc1)[C@H](C(=O)O)C(C)C
0.999

Complete the entry with normalized growth for CCOC(=O)C1=C(C)NC(C)=C(C(=O)OC)C1c1cccc([N+](=O)[O-])c1 (configuration not stated)
1

Complete the entry with normalized growth for CCCCC(=O)O[C@H]1CCC2C3CCc4cc(O)ccc4C3CC[C@@]21C (some centres not stated)
1.04

Complete the entry with normalized growth for CC1=C(C(=O)O)N2C(=O)[C@@H](NC(=O)[C@H](N)C3=CCC=CC3)C2SC1 (some centres not stated)
1.04
